experiment summary: amyloid nucleation score (Sup35N fusion, yeast selection) (log enrichment); library NNK1; higher = more nucleation; inactive = no reads after selection;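 further: zero at mode of non-aggregating sequences after 7 days selection at 30°C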
measurement name: amyloid nucleation score
Just the number.

*Q* For CVMFLGFVYVFSSLYPT , what is its reported amyloid nucleation score?
*A* -0.981

*Q* Entry to check: NMCNLSFLQ
*A* 0.104

*Q* Entry to check: SNLLPLYP
*A* 0.263

*Q* Entry to check: SSVILSDCSCFMVHQCWYLC
*A* -2.13

*Q* Entry to check: LPVHGMFWSVR
*A* -0.157

*Q* Entry to check: CNPEGYRAHVLCFLNFA
*A* 3.63

*Q* Entry to check: HSLSFTNVVDTSLPLVLANF
*A* -2.15

*Q* Entry to check: MEPFSAC
*A* -0.276

*Q* Entry to check: VETSGVILVESWCFMLGIDV
*A* 0.724

*Q* Entry to check: WLESLARDSCSRFIDLHEWG
*A* -0.615

*Q* Entry to check: ILCALMRFLVETLHLINFWK
*A* -0.278

*Q* Entry to check: LMLTARPVMFVLLCWWFRSS
*A* 0.246

*Q* Entry to check: AGKCIVQYKGLKNVR
*A* 0.91

*Q* Entry to check: HRQLWC
*A* -1.96

*Q* Entry to check: FLTLCVLNRLWH
*A* 4.85

*Q* Entry to check: KVLFLTCYTTPSLNNLVFRC
*A* -0.069

*Q* Entry to check: MYASWSVF
*A* -0.223

*Q* Entry to check: TTCVELYVWRGWRGAGGTGV
*A* -1.41

*Q* Entry to check: MQWPYCGMTFCYTW
*A* -0.047

*Q* Entry to check: NNFSCMDHILSMVKLWDVFG
*A* -0.847

*Q* Entry to check: SYEVFEIISNCLEY
*A* -0.321

*Q* Entry to check: SWGTGVIPMVRNSLRECTEL
*A* -0.388

*Q* Entry to check: GLLNTYS
*A* 0.626

*Q* Entry to check: QVSCSGFYRRDLSSRL
*A* 0.614

*Q* Entry to check: VYNLFVEVVPILKNRLWFNY
*A* 4.44

*Q* Entry to check: SIRLREL
*A* 1.61

*Q* Entry to check: WDLLLWSVNRDRRV
*A* 1.47

*Q* Entry to check: GIGVKSEGHVINDFYKLRER
*A* 0.002

*Q* Entry to check: GENYLGCLGSFWKTSNTCCP
*A* -0.881

*Q* Entry to check: CPRIYGVRLKSSRLPAGVYV
*A* 1

*Q* Entry to check: FKSYWGSTWRSNSWVGDMRG
*A* -0.225

*Q* Entry to check: HLRKVGYSIYLFSR
*A* 3.83

*Q* Entry to check: SGLIKVGISLRLHYGLYLRY
*A* 0.684
